# TEST_PARAMETERS: Study 1, healthy subjects; oral repaglinide 1 mg, metformin 500 mg, pitavastatin 2 mg, caffeine 100 mg, efavirenz 50 mg, midazolam 2 mg or digoxin 0.25 mg without rezafungin; plasma, LC-MS/MS, NCA
PROPERTY: AUC0–t, geometric LSM value, alone (ng·h/mL)
Only the number, expressed in ng·h/mL, is required.

So what's the measured AUC0–t, geometric LSM value, alone for this one? Cc1ncc2n1-c1ccc(Cl)cc1C(c1ccccc1F)=NC2 [Midazolam]
21.39

So what's the measured AUC0–t, geometric LSM value, alone for this one? O=C(O)C[C@H](O)C[C@H](O)/C=C/c1c(C2CC2)nc2ccccc2c1-c1ccc(F)cc1 [Pitavastatin]
77.44

So what's the measured AUC0–t, geometric LSM value, alone for this one? CCOc1cc(CC(=O)N[C@@H](CC(C)C)c2ccccc2N2CCCCC2)ccc1C(=O)O [Repaglinide]
20.25

Origin of values: paper PMC10269561
